From: paper PMC9285603

Molecular target: constitutive 20S proteasome (Bos taurus, UniProt Q2TBP0+Q32KL2+Q3MHN0)
Construct: isolated constitutive and immunoproteasomes purified from bovine brain and thymus, respectively; from tissue; host or cells: bovine brain
Test: In vitro activity assays on isolated constitutive 20S proteasome (fluorogenic peptides)
Assay type: biochemical
Settings: isolated 20S from bovine brain; 30 min preincubation, 37°C; read-out: IC50 ChT‐L Constitutive proteasome
I'd be grateful if you could share measured IC50 for these entries.
Report field: quantity (unit follows the number).

Observe how each entry below is paired with its result.
O=C1CCC(Cc2ccc(O)cc2)O1 (stereo not drawn) [Compound C1, 5‐(4ʹ‐hydroxyphenyl)‐γ‐valerolactone] ... 120 nM
O=C1CCC(Cc2ccc(O)c(O)c2)O1 (stereo not drawn) [Compound C2] ... 16.2 nM

Give its IC50 value. Item: O=C1CCC(Cc2ccc(OS(=O)(=O)O)c(O)c2)O1 (stereo not drawn) [Compound C3]
109 nM
